B1: TCAP (parent)
chain: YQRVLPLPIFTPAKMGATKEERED

Variants of: B1
assayName: protein stability index of a GFP-peptide fusion (GPS, HEK-293T) (PSI 1-6); higher = more stable;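 further: lentivirally expressed fusions sorted by FACS into six bins by GFP to DsRed ratio, PSI derived from sequencing read proportions per bin multiplied by bin number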
conditionParameters: c terminus: a fixed tail appended
observable: protein stability index
No unit in the answer, only the number.

[[record]]
variantstring = "E20R"
endpointvalue = 2.48

[[record]]
variantstring = "P12K"
endpointvalue = 3.2

[[record]]
variantstring = "V4R"
endpointvalue = 1.7

[[record]]
variantstring = "K19A"
endpointvalue = 2.02

[[record]]
variantstring = "E21I"
endpointvalue = 2.2


I would be grateful if you could share the reported protein stability index for E23D .
2.04

So what's the measured protein stability index for this one? P12N
2.82

Field request: protein stability index | item: E20G
2.23

Reported protein stability index for M15S : what is it?
2.92
